- Tested on: Echinochloa crus-galli (ECHCG)
- experiment: Pre-emergence herbicide test, glasshouse, percentage damage
- Type: in vivo
- conditionSummary: rate 1000 g/ha, evaluated after 13 days
Items are presented alongside their recorded Pre-emergence Test ECHCG percentage damage (five point scale).
measuredEndpoint: Pre-emergence Test ECHCG percentage damage (five point scale)

smilesStr: FC(F)c1cc(-c2c(Br)cccc2Oc2ncc(Cl)cc2Cl)on1
result: 4 (4=61-80%)
--
smilesStr: Fc1cc(Cl)cnc1Oc1ccccc1-n1cc(C(F)(F)F)nn1
result: 5 (5=81-100%)
--
smilesStr: N#Cc1cccc(Oc2ncc(F)cc2F)c1-c1cc(C(F)F)no1
result: 5 (5=81-100%)
--
smilesStr: Fc1cc(Cl)cnc1Oc1ccccc1-c1csc(Cl)c1
result: 1 (1=0-20%)

###

- Tested on: Lolium perenne (LOLPE)
- experiment: Pre-emergence herbicide test, glasshouse, percentage damage
- Assay type: in vivo
- conditionSummary: rate 500 g/ha, evaluated after 13 days
Items are presented alongside their recorded Pre-emergence Test LOLPE percentage damage (five point scale).
measuredEndpoint: Pre-emergence Test LOLPE percentage damage (five point scale)

compound: Fc1cccc(Oc2cccc(F)c2-c2cc(C(F)F)no2)n1 [Compound A7]
result: 1 (1=0-20%)
--
compound: Fc1cc(Cl)cnc1Oc1cccc(F)c1-c1ncc(C(F)(F)F)o1 [Compound A3]
result: 1 (1=0-20%)
--
compound: Fc1cccc(Oc2ccc(C(F)(F)F)cn2)c1-c1cc(C(F)F)no1 [Compound A6]
result: 4 (4=61-80%)
--
compound: N#Cc1ccc(Oc2cccc(F)c2-c2cc(C(F)F)no2)nc1 [Compound A12]
result: 5 (5=81-100%)

###

- Tested on: Solanum nigrum (SOLNI)
- experiment: Post-emergence herbicide test, glasshouse, percentage damage
- Type: in vivo
- conditionSummary: 1000 g/ha, evaluated after 13 days
measuredEndpoint: percentage damage caused to the plant, SOLNI

smilesStr: FC(F)c1cc(-c2c(Cl)cccc2Oc2ncc(Cl)cc2Cl)on1
result: 5 (5=81-100%)

smilesStr: Fc1cc(Cl)cnc1Oc1ccccc1-n1cc(C(F)(F)F)nn1
result: 5 (5=81-100%)

smilesStr: N#Cc1cccnc1Oc1cccc(Cl)c1-c1cc(C(F)F)no1
result: 5 (5=81-100%)

smilesStr: Fc1cc(Cl)cnc1Oc1ccccc1-n1cc(C(F)(F)F)cn1
result: 5 (5=81-100%)

smilesStr: N#Cc1cc(F)cnc1Oc1cccc(Cl)c1-c1cc(C(F)F)no1
result: 5 (5=81-100%)

smilesStr: O=[N+]([O-])c1ccc(Oc2ccccc2-n2cc(C(F)(F)F)cn2)nc1
result: 5 (5=81-100%)

smilesStr: FC(F)c1cc(-c2c(Cl)cccc2Oc2cc(C(F)(F)F)ccn2)on1
result: 4 (4=61-80%)

smilesStr: N#Cc1cccnc1Oc1cccc(F)c1-c1cc(C(F)F)no1
result: 5 (5=81-100%)

smilesStr: Fc1cc(Cl)cnc1Oc1cccc(F)c1-c1cc(C(F)(F)F)on1
result: 5 (5=81-100%)

smilesStr: Fc1cc(Cl)cnc1Oc1cccc(F)c1-c1cc(C(F)(F)F)no1
result: 5 (5=81-100%)

smilesStr: FC(F)c1cc(-c2c(Br)cccc2Oc2ncc(Cl)cc2Cl)on1
result: 4 (4=61-80%)

smilesStr: FC(F)c1cc(-c2c(Br)cccc2Oc2ccc(Br)cn2)on1
result: 5 (5=81-100%)

smilesStr: Fc1cc(C(F)(F)F)cnc1Oc1cccc(F)c1-c1cc(C(F)F)no1
result: 3 (3=41-60%)

smilesStr: Fc1cccc(Oc2ncc(C(F)(F)F)cc2Cl)c1-c1cc(C(F)F)no1
result: 5 (5=81-100%)

smilesStr: Fc1cccc(Oc2cccc(C(F)(F)F)n2)c1-c1cc(C(F)F)no1
result: 3 (3=41-60%)

smilesStr: FC(F)c1cc(-c2c(Cl)cccc2Oc2ccc(Br)cn2)on1
result: 5 (5=81-100%)

smilesStr: N#Cc1cccc(Oc2ncc(Cl)cc2F)c1-n1cc(C(F)(F)F)cn1
result: 5 (5=81-100%)

smilesStr: Fc1cc(Cl)cnc1Oc1cccc(F)c1-n1cc(C(F)(F)F)cn1
result: 5 (5=81-100%)

smilesStr: Fc1cc(Cl)cnc1Oc1ccccc1-c1csc(Cl)c1
result: 4 (4=61-80%)

smilesStr: Fc1cc(Cl)cnc1Oc1c(F)cccc1-c1cc(C(F)F)no1
result: 3 (3=41-60%)

smilesStr: Fc1cnc(Oc2cccc(Br)c2-c2cc(C(F)F)no2)c(F)c1
result: 5 (5=81-100%)

smilesStr: Fc1cc(Cl)cnc1Oc1cccc(Cl)c1-n1cc(C(F)(F)F)cn1
result: 5 (5=81-100%)

smilesStr: N#Cc1cc(C(F)(F)F)cnc1Oc1cccc(Cl)c1-c1cc(C(F)F)no1
result: 5 (5=81-100%)

smilesStr: Fc1cnc(Oc2cccc(Cl)c2-c2cc(C(F)F)no2)c(F)c1
result: 5 (5=81-100%)

smilesStr: O=[N+]([O-])c1cnc(Oc2cccc(F)c2-c2cc(C(F)F)no2)c(F)c1
result: 4 (4=61-80%)

smilesStr: Fc1cc(Br)cnc1Oc1cccc(F)c1-c1cc(C(F)F)no1
result: 5 (5=81-100%)

// provenance: patent US12227495B2
